test system: NCI-H23 lung; assay: NCI tumour cell line growth inhibition, 48 h; in the data active = GI50 below about 0.43 µM; inactive = the rest
Where a SMILES comes first, the peptide text is derived from it. [ ]: non-standard residue; d: D form. The star is where a group is joined. ξ: configuration not given here. X16 = COC1=CC(=O)N(C(=O)C(O*)C(C)C)C1Cc1ccccc1; ξNMe2Val = CC(C)C(C(=O)*)N(C)C; NMeV = CN[CH](C(=O)O)C(C)C
Give your call using only these classes: Y (active), N (inactive)

compound=Cc1ccc(NS(=O)(=O)c2ccc(-c3cnc(C4CC4)o3)cc2)cc1 category_label=N

Kindly provide the recorded test outcome for the following compound: COC1=CC(=O)N(C(=O)C(OC(=O)C2CCCN2C(=O)C2CCCN2C(=O)C(C(C)C)N(C)C(=O)C(NC(=O)C(C(C)C)N(C)C)C(C)C)C(C)C)C1Cc1ccccc1 (centres undefined) (ξNMe2Val-V[NMeV]PP-X16; configuration not given here)
Y

Kindly provide the recorded test outcome for the following compound: Cc1cc(N(CCCl)CCCl)ccc1C=Nc1cccnc1
N

Kindly provide the recorded test outcome for the following compound: Brc1c[n+](Cc2ccc3ccccc3c2)cn1Cc1ccc2ccccc2c1
N

###

test system: NCI/ADR-RES ovarian; experiment: NCI tumour cell line growth inhibition, 48 h
Quick reference for TGI among some molecules

Use these answered entries as a reference point.
molecule=CCC1(O)C=CC(=O)C=C1 property=TGI result="> 66.8 µM"
molecule=COc1ccc(/C=C2/CN(C(=O)c3ccccc3F)C/C(=C\c3ccc(OC)cc3)C2=O)cc1 property=TGI result="82.5 µM"
molecule="C=C1CC2CC[C@@]34C[C@@H]5O[C@@H]6C(O[C@H]7CC[C@H](CC(=O)OC8[C@@H](C)C9OC%10C[C@]%11(C[C@@H]%12O[C@@]%13(C[C@@H](C)[C@@H]%12O%11)C[C@H](C)[C@@H]%11OC%12CC(C(O)CO)OC%12C[C@@H]%11O%13)OC%10CC9O[C@H]8C[C@H]8O[C@@H](CC[C@@H]1O2)C[C@@H](C)C8=C)O[C@@H]7[C@@H]6O3)C5O4 (stereo partly drawn)" property=TGI result="0.0304 µM"
molecule=CSc1n[nH]c(N)c1C(=O)Nc1ccc(Cl)cc1 property=TGI result="> 100 µM"
molecule="CC(C)(C)C1CCC2c3c([nH]c4ccccc34)C3C(=O)N(c4cc(Br)cc(Br)c4)C(=O)C3C2C1 (stereo not drawn)" property=TGI result="40.8 µM"

Lab book: TGI of O=C1OCC(c2ccc(O)c(O)c2)=C1c1cc(O)c(O)c(O)c1 noted as 18.8 µM

Lab book: TGI of COC(=O)OC[C@H]1O[C@@H](n2cc(C)c(=O)[nH]c2=O)CC1OC(=O)OC (stereo partly drawn) noted as > 100 µM

Lab book: TGI of CC(=O)N[C@@H](Cc1ccc(O)cn1)C(=O)NCc1cccc(F)c1 noted as > 100 µM

###

system: MDA-MB-231 breast; test: NCI tumour cell line growth inhibition, 48 h; in the data active = GI50 below about 0.43 µM; inactive = the rest
Give your call using only these classes: label 1 = active, label 0 = inactive

compound=CCCC[C@@H]1NC(=O)[C@H](CCCCN)NC(=O)[C@H](CCCNC(=N)N)NC(=O)[C@H](CC(C)C)NC(=O)[C@@H](NC(=O)[C@H](Cc2cccc(Cl)c2)NC(=O)[C@@H]2CCCN2C(=O)[C@@H](NC(C)=O)C(C)C)CCSSC[C@@H](C(=O)N[C@@H](CCCCN)C(=O)N2CCC[C@H]2C(=O)N2CCC[C@H]2C(=O)N[C@@H](CCC(=O)O)C(N)=O)NC(=O)[C@H](Cc2ccccc2)NC(=O)[C@H](CO)NC(=O)[C@H](C)NC(=O)[C@@H]2CCCN2C1=O category_label="label 0"
compound=C=C1C(=O)O[C@H]2[C@H]1CC/C(COC(=O)OCCCCCOC(=O)OC/C1=C/CC[C@@]3(C)O[C@H]3[C@H]3OC(=O)C(=C)[C@@H]3CC1)=C\CC[C@@]1(C)O[C@@H]21 category_label="label 1"
compound="Cc1nc2sc(C(=O)Nc3cccc4ccccc34)c(N)c2cc1C(C)O (centres undefined)" category_label="label 0"

Kindly provide the recorded test outcome for the following compound: COc1cc(-c2c3c(cn2S(=O)(=O)c2ccccc2)-c2nc(N)sc2CC3)cc(OC)c1OC
label 0

###

Quick reference for TGI among some compounds
system: HCC-2998 colon; assay: NCI tumour cell line growth inhibition, 48 h

Use these answered entries as a reference point.
smiles_structure=Nc1ccccc1C#C/C=C\C#Cc1ccc(F)cc1F property=TGI result="12.6 µM"
smiles_structure=O=C(Cc1ccccc1)Oc1ccc2c(-c3ccccc3)c(C(=O)Nc3ccc(Cl)cc3)c(=O)oc2c1 property=TGI result="> 100 µM"

// next item, TGI requested
Lab book: TGI of CS(=O)(=O)C1S(=O)(=O)OCCOS1(=O)=O noted as > 100 µM

###

test system: MALME-3M melanoma; test: NCI tumour cell line growth inhibition, 48 h
Quick reference for log10(TGI) among some molecules
Short version: log10 scale, TGI, µM.

Use these answered entries as a reference point.
molecule=CC(C)(C)c1nc2c(o1)C(=Nc1ccccc1)c1ccccc1C2=O recorded_number=0.48
molecule=O=C1Nc2ccc(Cl)cc2/C1=C\c1c(-c2ccc(F)cc2)nc2ccccn12 recorded_number=1.17
molecule="COc1ccc(-c2cc3c4c(nc5ccccc5c4c2)CC(c2cc(OC)c(OC)c(OC)c2)O3)cc1 (centres undefined)" recorded_number=0.59
molecule=O=C(Cc1ccc(Cl)c(Cl)c1)NCCCN1CCN(CCCN2CCCCC2)CC1 recorded_number=1.54

// next item, log10(TGI) requested
Record COc1ccc(C2C3=C(NC(=O)C2C#N)c2ccc4ccccc4c2OCC3)cc1 (centres undefined) / MALME-3M melanoma, log10(TGI) recorded as 1.89

###

test system: OVCAR-8 ovarian; experiment: NCI tumour cell line growth inhibition, 48 h
Quick reference for log10 of TGI among some compounds
Short version: log10 scale, TGI, µM.

compound=COc1ccc2c(c1)C(=O)c1c-2c(NCCCN(C)C)nc2ccccc12 property="log10 of TGI" recorded_number=0.88
compound="C=C(NC(=O)C(=C)NC(=O)c1csc(C2=NC3c4csc(n4)C4NC(=O)c5csc(n5)C(C(C)(O)C(C)O)NC(=O)C5CSC(=N5)/C(=C/C)NC(=O)C(C(C)O)NC(=O)c5csc(n5)C3(CC2)NC(=O)C(C)NC(=O)C(=C)NC(=O)C(=C)NC(=O)C(C(C)C)NC2C=Cc3c(C(C)O)cc(nc3C2O)C(=O)OC4C)n1)C(N)=O (configuration not stated)" property="log10 of TGI" recorded_number=0.94
compound="C[C@@H]1O[C@@H](O[C@H]2C[C@@H](O)[C@]3(CO)C4C(CC[C@]3(O)C2)[C@@]2(O)CC[C@H](C3=CC(=O)OC3)[C@@]2(C)C[C@H]4O)[C@H](O)[C@H](O)[C@H]1O (some centres not stated)" property="log10 of TGI" recorded_number=-1.16
compound=O=C1C(=O)c2ccc(Br)cc2-c2cc(Br)ccc21 property="log10 of TGI" recorded_number=0.41
compound=O=[N+]([O-])/C(C(Cl)=C(Cl)Cl)=C1\Nc2ccccc2O1 property="log10 of TGI" recorded_number=1.81

// next item, log10 of TGI requested
Lab book: log10 of TGI of Oc1c(OCc2nnc(CCCCCCCCc3nnc(COc4ccc5ccccc5c4O)n3Nc3ccccc3)n2Nc2ccccc2)ccc2ccccc12 noted as 1.45

###

tested on: NCI-H460 lung; assay: NCI tumour cell line growth inhibition, 48 h
PROPERTY: TGI

compound=O=C(/C=C/c1ccc(OCCCCCCCCCCOc2ccc(/C=C/C(=O)c3ccc(Cl)cc3)cc2)cc1)c1ccc(Cl)cc1 study_target="NCI-H460 lung" result="> 100 µM"
compound="COC(=O)C(=O)C(C(=O)C(=O)Nc1ccccc1C(=O)OC)c1nc2ccc(C(=O)c3ccccc3)cc2[nH]c1=O (stereo not given)" study_target="NCI-H460 lung" result="> 100 µM"
compound=O=C1Nc2ccc(Cl)cc2/C1=C\c1c(-c2ccc(F)cc2)nc2ccccn12 study_target="NCI-H460 lung" result="5.89 µM"

Record O=c1cc2n(c(=O)[nH]1)C1OC(C(O)C1O)[C@@H]2CCO (stereo not given in full) / NCI-H460 lung, TGI recorded as > 100 µM

Record CN(C(=O)C1CCCCC1)c1ccccc1I(=O)=O / NCI-H460 lung, TGI recorded as > 100 µM

###

Quick reference for log10(TGI) among some compounds
test system: UACC-62 melanoma; assay: NCI tumour cell line growth inhibition, 48 h
Short version: log10 scale, TGI, µM.

Use these answered entries as a reference point.
compound=COc1ccc(-c2nc(-c3nc4ccc(F)cc4[nH]3)cc3c2[nH]c2ccccc23)cc1 recorded_number=0.63
compound=COc1cc2c(-c3nc4cc(Cl)c(F)cc4s3)cc(=O)oc2c(C)c1OC recorded_number=0.43
compound=Cc1ccc(NS(=O)(=O)c2ccc(-c3cnc(C4CC4)o3)cc2)cc1 recorded_number=1.17
compound=COc1ccc(/C=C2/CN(C(=O)c3ccccc3F)C/C(=C\c3ccc(OC)cc3)C2=O)cc1 recorded_number=1.06
compound=FC(F)(F)c1cc(Nc2ccc3c(OCCCN4CCOCC4)cccc3n2)ccc1Cl recorded_number=0.62

Record Brc1c[n+](Cc2ccc3ccccc3c2)cn1Cc1ccc2ccccc2c1 / UACC-62 melanoma, log10(TGI) recorded as 0.41

Record [N-]=N[N+]#I1OC(C(F)(F)F)(C(F)(F)F)c2ccccc21 / UACC-62 melanoma, log10(TGI) recorded as 1.68

Record COc1cc2c(cc1O)[C@H](C)C(c1ccc(Cl)cc1)O2 (some centres not stated) / UACC-62 melanoma, log10(TGI) recorded as 1.97
